FYI, the data here is from patent US9682940B2.

For each of the compounds below, state its pEC50.
# Test System: Human CB1R (Cannabanoid receptor 1) (Homo sapiens (Human), UniProt P21554)
# Sequence (P21554 whole entry): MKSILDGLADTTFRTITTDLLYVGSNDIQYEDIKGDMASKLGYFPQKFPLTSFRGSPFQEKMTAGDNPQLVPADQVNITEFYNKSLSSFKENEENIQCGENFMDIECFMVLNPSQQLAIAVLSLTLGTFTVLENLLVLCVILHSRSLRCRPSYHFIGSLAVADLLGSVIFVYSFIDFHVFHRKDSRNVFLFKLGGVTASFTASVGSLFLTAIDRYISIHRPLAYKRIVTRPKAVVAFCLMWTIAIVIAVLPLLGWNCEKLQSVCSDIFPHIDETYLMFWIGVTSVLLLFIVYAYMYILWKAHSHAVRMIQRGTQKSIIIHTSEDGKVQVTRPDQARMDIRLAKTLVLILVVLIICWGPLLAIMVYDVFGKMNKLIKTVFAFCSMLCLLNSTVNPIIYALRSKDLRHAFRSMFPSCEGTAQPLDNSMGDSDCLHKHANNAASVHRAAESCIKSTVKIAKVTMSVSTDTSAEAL
# Assay Notes: CB-1 in vitro cAMP (HTRF) assay in HEK-293 cells
# Condition Context: HEK-293 cells stably transfected with human CB1R, 250 nM Forskolin, mean where tested more than once, read-out: CB-1 (HEK_cAMP) EC50
Please express pEC50 as -log10 of the molar concentration.

Q: Tell me pEC50 of CC(C)(O)Cn1nc(C2CCN(S(=O)(=O)C(F)(F)F)CC2)c2cc(C(c3ccc(Cl)cc3)c3ccc(Cl)cc3)ccc21 [Compound 201] when tested on Human CB1R (Cannabanoid receptor 1) (Homo sapiens (Human), UniProt P21554).
A: 5.58

Q: Provide pEC50, recorded with Human CB1R (Cannabanoid receptor 1) (Homo sapiens (Human), UniProt P21554), of O=C(O)c1cccc(CN2CCC(c3c4cc(C(c5ccc(Cl)cc5)c5ccc(Cl)cc5)ccc4nn3C3CC3)CC2)c1 [Compound 257]
A: 7.89

Q: Give pEC50; test system Human CB1R (Cannabanoid receptor 1) (Homo sapiens (Human), UniProt P21554); compound O=C(O)c1ccc(CN2CCC(c3nn(C4CC4)c4ccc(C(c5ccc(Cl)cc5)c5ccc(Cl)cc5)cc34)CC2)s1 [Compound 254]
A: 7.80

Q: State pEC50 (Human CB1R (Cannabanoid receptor 1) (Homo sapiens (Human), UniProt P21554)) of NC(=O)c1ccc(N2CCC(c3c4cc(C(c5ccc(Cl)cc5)c5ccc(Cl)cc5)ccc4nn3C3CC3)CC2)cc1 [Compound 194] .
A: 7.32

Q: State, for Human CB1R (Cannabanoid receptor 1) (Homo sapiens (Human), UniProt P21554), measured pEC50 of the compound listed here: O=C(O)c1ccc(CN2CCC(c3c4cc(C(c5ccc(Cl)cc5)c5ccc(Cl)cc5)ccc4nn3C3CC3)CC2)cc1 [Compound 256]
A: 7.52

Q: Report the value of pEC50 obtained on Human CB1R (Cannabanoid receptor 1) (Homo sapiens (Human), UniProt P21554) for O=C(O)c1ccc(C(c2ccc(Cl)cc2)c2ccc3nn(C4CC4)c(C4CCN(S(=O)(=O)C(F)(F)F)CC4)c3c2)cc1 (stereo not shown) [Compound 238] .
A: 6.70

Q: Send back Human CB1R (Cannabanoid receptor 1) (Homo sapiens (Human), UniProt P21554) pEC50 of NC(=O)C(=O)N1CCC(c2c3cc(C(c4ccc(Cl)cc4)c4ccc(Cl)cc4)ccc3nn2C2CC2)CC1 [Compound 138] only.
A: 6.23

Q: Retrieve pEC50 on Human CB1R (Cannabanoid receptor 1) (Homo sapiens (Human), UniProt P21554); query CC(C)(C)OC(=O)N1CCC(c2n[nH]c3ccc(C(c4ccc(Cl)cc4)c4ccc(Cl)cc4)cc23)CC1 [Compound 39]
A: 6.84

Q: Provide pEC50, tested on Human CB1R (Cannabanoid receptor 1) (Homo sapiens (Human), UniProt P21554), for COc1cc(S(=O)(=O)N2CCC(c3c4cc(C(c5ccc(Cl)cc5)c5ccc(Cl)cc5)ccc4nn3C3CC3)CC2)ccc1C(N)=O [Compound 146] .
A: 8.15

Q: # assay system Human CB1R (Cannabanoid receptor 1) (Homo sapiens (Human), UniProt P21554): give pEC50 of O=C(O)c1ccc(S(=O)(=O)N2CCC(c3nn(CCO)c4ccc(C(c5ccc(Cl)cc5)c5ccc(Cl)cc5)cc34)CC2)cc1 [Compound 80]
A: 6.43

Q: # lookup: Human CB1R (Cannabanoid receptor 1) (Homo sapiens (Human), UniProt P21554) pEC50, key = CC(c1cccc(C(=O)O)c1)N1CCC(c2n[nH]c3ccc(C(c4ccc(Cl)cc4)c4ccc(Cl)cc4)cc23)C1 (stereo not shown) [Compound 277]
A: 5.81

Q: // fetch pEC50; item: NC(=O)CS(=O)(=O)N1CCC(c2nn(C3CC3)c3ccc(C(c4ccc(Cl)cc4)c4ccc(Cl)cc4)cc23)CC1 [Compound 115] ; system: Human CB1R (Cannabanoid receptor 1) (Homo sapiens (Human), UniProt P21554)
A: 5.99

Q: Under Human CB1R (Cannabanoid receptor 1) (Homo sapiens (Human), UniProt P21554): report pEC50 of NC(=O)c1ccc(S(=O)(=O)N2CCC(c3c4cc(C(c5ccc(Cl)cc5)c5ccc(Cl)cc5)ccc4nn3C3CC3)CC2)cc1F [Compound 167] .
A: 7.92
